RECORDED_METRIC: melting point (°C)

P. CCc1ccc([C@H]2c3[nH]c4ccccc4c3C[C@@H]3C(=O)N(CC4CC4)CC(=O)N23)cc1 (relative stereo)
Q. CN1CC(=O)N2C(Cc3c([nH]c4ccccc34)C2c2ccc(Br)s2)C1=O (centres unmarked)
Incoming: Lab note: check whether P or Q shows the higher recorded melting point. Label of pick, please.
Outgoing: Q
(Q: 258 °C, P: 160 °C)

###

RECORDED_METRIC: melting point (°C)

Worked examples follow.
{"columns": ["MOLECULE", "melting point, °C"],
 "data": [
  ["O=C1[C@H]2Cc3c([nH]c4ccccc34)[C@@H](c3ccc4c(c3)OCO4)N2C(=O)CN1CC1CCCCC1", 209],
  ["CCCCN1CC(=O)N2[C@@H](c3ccc(N)cc3)c3[nH]c4ccccc4c3C[C@@H]2C1=O (relative stereo)", 192],
  ["Cc1ccc([C@H]2c3[nH]c4ccccc4c3C[C@@H]3C(=O)N(C(C)C)CC(=O)N23)cc1 (relative stereo)", 170],
  ["Cc1ccc2[nH]c3c(c2c1)C[C@@H]1C(=O)N(C)CC(=O)N1[C@H]3c1ccc2c(c1)OCO2 (relative stereo)", 275]
]}

A. CCN1CC(=O)N2[C@H](c3ccc(OC)cc3)c3[nH]c4ccccc4c3C[C@@H]2C1=O
B. CCc1ccc([C@H]2c3[nH]c4ccccc4c3C[C@@H]3C(=O)N(C(C)C)CC(=O)N23)cc1 (relative stereo)
Incoming: Of A and B , which carries the smaller reported melting point figure? Bench note: the answer is the label of the chosen record.
Outgoing: B

###

Entries and their melting point values follow.

{"columns": ["COMPOUND", "RECORDED_METRIC", "VALUE_REPORTED"],
 "data": [
  ["CCCN1CC(=O)N2[C@@H](c3ccc4c(c3)OCO4)c3[nH]c4ccccc4c3C[C@@H]2C1=O (relative stereo)", "melting point", "270 to 271 °C"],
  ["O=C1[C@H]2Cc3c([nH]c4ccccc34)[C@H](c3ccc4c(c3)OCO4)N2C(=O)CN1C1CC1 (relative stereo)", "melting point", "290 to 292 °C"],
  ["COc1cccc([C@H]2c3[nH]c4ccccc4c3C[C@@H]3C(=O)N(C)CC(=O)N23)c1 (relative stereo)", "melting point", "267 to 269 °C"]
]}

Incoming: Any idea what melting point was measured for CCOc1ccc([C@H]2c3[nH]c4ccccc4c3C[C@@H]3C(=O)N(C)CC(=O)N23)cc1 (relative stereo) ?
Outgoing: 247 to 248 °C

Incoming: Item under review: O=C1[C@H]2Cc3c([nH]c4ccccc34)[C@H](c3ccc4c(c3)OCO4)N2C(=O)CN1Cc1ccncc1 (relative stereo) . Reported melting point?
Outgoing: 273 to 274 °C

Incoming: Please look up its melting point: CCCCN1CC(=O)N2[C@@H](c3ccc(C#N)cc3)c3[nH]c4ccccc4c3C[C@@H]2C1=O (relative stereo)
Outgoing: 246 °C

Incoming: Which melting point value belongs to CCCCN1CC(=O)N2[C@@H](c3ccc(OC)cc3)c3[nH]c4ccccc4c3C[C@@H]2C1=O (relative stereo) ?
Outgoing: 157 °C

###

# EXPERIMENTAL_SYSTEM: human recombinant PDE V (Homo sapiens)
# METHOD_SUMMARY: Inhibitory effect on cGMP-PDE (one-step assay adapted from Wells et al.)
# PROTOCOL_CONDITIONS: 0.15 μM 8-[H3]-cGMP, 30 minutes incubation, 2% DMSO
RECORDED_METRIC: IC50 (nM)

a. COc1ccc([C@@H]2c3[nH]c4ccccc4c3C[C@@H]3C(=O)N(CC4CC4)CC(=O)N23)cc1
b. CN1CC(=O)N2C(Cc3c([nH]c4ccccc34)C2c2ccc(Br)s2)C1=O (stereo not drawn)
Incoming: Which gives the smaller IC50 number: a or b ? Let me know the label of the one you choose.
Outgoing: a
(a: 10 nM, b: 20 nM)

###

This section presents compounds with their documented melting point values.

Incoming: Recorded melting point for CCN1CC(=O)N2[C@@H](c3ccc(OC)cc3)c3[nH]c4ccccc4c3C[C@@H]2C1=O (relative stereo) [Example 27] , please?
Outgoing: 245 to 255 °C

Incoming: Please give the measured melting point for this compound: CCCCN1CC(=O)N2[C@@H](c3ccc(Cl)cc3)c3[nH]c4ccccc4c3C[C@@H]2C1=O (relative stereo) [Example 42]
Outgoing: 164 to 166 °C

Incoming: I'd like to know its melting point. The compound in question is CN1CC(=O)N2[C@@H](c3ccc4c(c3)CCO4)c3[nH]c4ccccc4c3C[C@@H]2C1=O (relative stereo) [Example 36]
Outgoing: 292 to 294 °C

###

# EXPERIMENTAL_SYSTEM: human recombinant PDE V (Homo sapiens, UniProt O76074)
# METHOD_SUMMARY: Inhibitory effect on cGMP-PDE (one-step assay adapted from Wells et al.)
# PROTOCOL_CONDITIONS: 0.15 μM 8-[H3]-cGMP, 30 minutes incubation, 2% DMSO
RECORDED_METRIC: IC50 (nM)

Check out these entries, answers already filled in.
{"columns": ["COMPOUND", "EXPERIMENTAL_SYSTEM", "VALUE_REPORTED"],
 "data": [
  ["O=C1[C@H]2Cc3c([nH]c4ccccc34)[C@H](c3ccc4c(c3)OCO4)N2C(=O)CN1Cc1ccncc1 (relative stereo)", "human recombinant PDE V (Homo sapiens, UniProt O76074)", 10],
  ["COc1ccc([C@@H]2c3[nH]c4ccccc4c3C[C@@H]3C(=O)N(C)CC(=O)N23)cc1Cl", "human recombinant PDE V (Homo sapiens, UniProt O76074)", 10]
]}

a. CCCCN1CC(=O)N2C(Cc3c([nH]c4ccccc34)C2c2ccc(C)cc2)C1=O (stereo not shown)
b. O=C1NCC(=O)N2[C@H](c3ccc4c(c3)OCO4)c3[nH]c4ccccc4c3C[C@H]12
c. O=C1[C@H]2Cc3c([nH]c4ccccc34)[C@@H](c3ccc4c(c3)OCO4)N2C(=O)CN1C1CCCC1
Incoming: Rank items: key IC50, increasing. Answer by listing the labels in the requested order.
Outgoing: b, c, a
(b: 10 nM, c: 20 nM, a: 30 nM)

###

RECORDED_METRIC: melting point (°C)

{"columns": ["COMPOUND", "melting point / °C"],
 "data": [
  ["O=C1[C@H]2Cc3c([nH]c4ccccc34)[C@H](c3ccc(Br)s3)N2C(=O)CN1CC1CC1 (relative stereo) [Example 54]", 190],
  ["CN1CC(=O)N2[C@@H](c3cccnc3)c3[nH]c4ccccc4c3C[C@@H]2C1=O (relative stereo) [Example 77]", 312],
  ["CCCCN1CC(=O)N2[C@@H](c3ccc([N+](=O)[O-])cc3)c3[nH]c4ccccc4c3C[C@@H]2C1=O (relative stereo) [Example 75]", 182],
  ["O=C1[C@H]2Cc3c([nH]c4ccccc34)[C@H](c3ccc4c(c3)OCO4)N2C(=O)CN1C1CCCC1 (relative stereo) [Example 21]", 270],
  ["CN1CC(=O)N2[C@H](c3ccc4c(c3)CCC4)c3[nH]c4ccccc4c3C[C@@H]2C1=O [Example 93]", 262],
  ["O=C1[C@H]2Cc3c([nH]c4ccccc34)[C@H](c3ccc(Br)s3)N2C(=O)CN1C1CCCC1 (relative stereo) [Example 55]", 252]
]}

###

RECORDED_METRIC: melting point (°C)

Before answering, review these 3 worked examples.
{"columns": ["COMPOUND", "melting point / °C"],
 "data": [
  ["C#CCN1CC(=O)N2[C@H](c3ccc4c(c3)OCO4)c3[nH]c4ccccc4c3C[C@@H]2C1=O", 271],
  ["CCCCN1CC(=O)N2[C@@H](c3ccc(NC(C)=O)cc3)c3[nH]c4ccccc4c3C[C@@H]2C1=O (relative stereo)", 246],
  ["CCCCN1CC(=O)N2C(Cc3c([nH]c4ccccc34)C2c2ccc(C)cc2)C1=O (stereo not drawn)", 194]
]}

a. CCCCN1CC(=O)N2[C@@H](c3ccc(C(F)(F)F)cc3)c3[nH]c4ccccc4c3C[C@@H]2C1=O (relative stereo)
b. CCc1ccc([C@H]2c3[nH]c4ccccc4c3C[C@@H]3C(=O)N(C)CC(=O)N23)cc1 (relative stereo)
Incoming: Select the item whose melting point value is smaller, choosing between a and b . Use the label to indicate which entry you chose.
Outgoing: a
(a: 155 °C, b: 254 °C)

###

List of melting point values.

{"columns": ["MOLECULE", "melting point"],
 "data": [
  ["C[C@@H]1C(=O)N2[C@H](c3ccc4c(c3)OCO4)c3[nH]c4ccccc4c3C[C@@H]2C(=O)N1C [Example 116]", "219 to 220 °C"],
  ["COc1ccc([C@@H]2c3[nH]c4ccccc4c3C[C@@H]3C(=O)N(C4CCCC4)CC(=O)N23)cc1Cl [Example 88]", "260 to 262 °C"],
  ["COc1cc([C@H]2c3[nH]c4ccccc4c3C[C@@H]3C(=O)N(C)CC(=O)N23)ccc1O (relative stereo) [Example 70]", "264 to 265 °C"],
  ["CN1CC(=O)N2[C@@H](c3ccc(O)cc3)c3[nH]c4ccccc4c3C[C@@H]2C1=O (relative stereo) [Example 68]", "179 to 180 °C"],
  ["O=C1NCC(=O)N2[C@H](c3ccc4c(c3)OCO4)c3[nH]c4ccccc4c3C[C@H]12 [Example 101]", "285 to 290 °C"]
]}

Incoming: Query (molecule): C[C@H]1C(=O)N2[C@H](c3ccc4c(c3)OCO4)c3[nH]c4ccccc4c3C[C@@H]2C(=O)N1C [Example 117] ; field requested: melting point
Outgoing: 307 to 309 °C

Incoming: Query (molecule): CN1CC(=O)N2[C@@H](c3ccsc3)c3[nH]c4ccccc4c3C[C@@H]2C1=O (relative stereo) [Example 57] ; field requested: melting point
Outgoing: 290 to 295 °C

Incoming: Fill in: melting point of CCCCN1CC(=O)N2[C@H](c3ccc4c(c3)OCO4)c3[nH]c4ccccc4c3C[C@@H]2C1=O [Example 80] is ___
Outgoing: 209 to 210 °C
